Each record here notes measured Hepatocyte Stability Rat QH.
Format: in vitro ADME, Rat
Details: rat, pH 7.4
Where a SMILES comes first, the peptide text is derived from it. [ ]: non-standard residue; d: D form. Trp(1-(1,1-Me2-allyl)) = C=CC(C)(C)n1cc(C[C@H](N)C(=O)O)c2ccccc21; Ala(3R-Me,3-isobutenyl) = CC(C)=C[C@@H](C)[C@H](N)C(=O)O; NMeLeu(5-OH,4R) = CN[C@@H](C[C@@H](C)CO)C(=O)O; Phe(βR-OMe) = CO[C@H](c1ccccc1)[C@H](N)C(=O)O; Trp(1-Me) = Cn1cc(C[C@H](N)C(=O)O)c2ccccc21; NMeL = CN[C@@H](CC(C)C)C(=O)O
value kind: Hepatocyte Stability Rat QH (%)

>>> measured_number("CO[C@H](c1ccccc1)[C@@H]1NC(=O)[C@H](C)NC(=O)[C@H](C[C@@H](C)CO)N(C)C(=O)[C@H](Cc2cn(Cc3cn(CCCCCn4cc(Cn5cc(C[C@@H]6NC(=O)[C@H](C(C)C)NC(=O)[C@H](CC(C)C)N(C)C(=O)[C@H](C(C)C)NC(=O)[C@H]([C@H](OC)c7ccccc7)NC(=O)[C@H](C)NC(=O)[C@H](C[C@@H](C)CO)N(C)C6=O)c6ccccc65)nn4)nn3)c3ccccc23)NC(=O)[C@H](C(C)C)NC(=O)[C@H](CC(C)C)N(C)C(=O)[C@H](C(C)C)NC1=O")
6.192
>>> measured_number("C=CC(C)(C)n1cc(C[C@@H]2NC(=O)[C@H]([C@H](C)C=C(C)C)NC(=O)[C@H](CC(C)C)N(C)C(=O)[C@H](C(C)C)NC(=O)[C@H]([C@H](OC)c3ccccc3)NC(=O)[C@H](C)NC(=O)[C@H](C[C@@H](C)CO)N(C)C2=O)c2ccccc21 [dCymC] (cyclo([Trp(1-(1,1-Me2-allyl))][NMeLeu(5-OH,4R)]A[Phe(βR-OMe)]V[NMeL][Ala(3R-Me,3-isobutenyl)]))")
55.000
>>> measured_number("CO[C@H](c1ccccc1)[C@@H]1NC(=O)[C@H](C)NC(=O)[C@H](C[C@@H](C)CO)N(C)C(=O)[C@H](Cc2cn(C)c3ccccc23)NC(=O)[C@H](CCC(=O)N(C)C)NC(=O)[C@H](CC(C)C)N(C)C(=O)[C@H](C(C)C)NC1=O [SI-74] (cyclo(A[Phe(βR-OMe)]V[NMeL]E(NMe2)[Trp(1-Me)][NMeLeu(5-OH,4R)]))")
48.537
